B1: CAMK2B (parent)
chain: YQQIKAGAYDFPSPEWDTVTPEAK

Variants of: B1
measurementDescription: protein stability index of a GFP-peptide fusion (GPS, HEK-293T) (PSI 1-6); higher = more stable;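 note: lentivirally expressed fusions sorted by FACS into six bins by GFP to DsRed ratio, PSI derived from sequencing read proportions per bin multiplied by bin number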
conditionSet: c terminus: a fixed tail appended
Rule: 1 for protein stability index not less than 3, -1 for anything less.

Please review the entries below; each comes with its answer.
>>> category("K5C")
1
>>> category("T18M")
1

Say whether Y1T shows protein stability index of 3 or more.
1

Reported protein stability index at or above 3? Q3I
1

Check the entry P21V : does protein stability index equal or exceed 3?
1
